- Test system: HEK293T cells carrying the ATF4 luciferase reporter
- experiment_summary: ATF4-Luc assay (in vitro model of vanishing white matter disease)
- Type: cell-based
- applied_conditions: Homo sapiens, HEK-293T; HEK293T cells with ATF4 luciferase reporter, 1 μg/mL tunicamycin, 7 hours, One Glo luminescence
- Description: In order to test exemplary compounds of the invention in a cellular context, a stable VWMD cell line was first constructed. […] HEK293T cells carrying the ATF4 luciferase reporter were plated on polylysine coated 384-well plates (Greiner Bio-one) at 30,000 cells per well. […] Luminescence was measured using One Glo (Promega) as specified by the manufacturer. […]
pEC50: −log10 of the molar value.
measured_metric: pEC50

Below: 5 compounds and their reported pEC50.
compound	pEC50
CC(=O)N1CC(C(=O)NC23CC(NC(=O)COc4ccc(Cl)c(F)c4)(C2)C3)Oc2ccc(Cl)cc21 (stereo not shown) [Compound 157]	7.30 to 8.00
CN1CC(C(=O)NC23CC(NC(=O)COc4ccc(Cl)c(F)c4)(C2)C3)Oc2ccc(Cl)cc21 (stereo not shown) [Compound 112]	> 8.00
CC1(C(=O)N2CC(C(=O)NC34CC(NC(=O)COc5ccc(Cl)c(F)c5)(C3)C4)Oc3ccc(Cl)cc32)CC1(F)F (stereo not shown) [Compound 179]	5.70 to 6.30
COCCOCC(=O)N1CC(C(=O)NC23CC(NC(=O)COc4ccc(Cl)c(F)c4)(C2)C3)Oc2ccc(Cl)cc21 (stereo not shown) [Compound 156]	7.30 to 8.00
O=C(COc1ccc(Cl)c(F)c1)NC12CC(NC(=O)C3CN(C(=O)C(F)(F)C(F)(F)C(F)(F)F)c4cc(Cl)ccc4O3)(C1)C2 (stereo not shown) [Compound 159]	> 8.00

For each of the compounds below, state pEC50.
1. O=C(COc1ccc(Cl)c(F)c1)NC12CCC(NC(=O)[C@@H]3COc4ccccc4O3)(CC1)[C@@H](O)C2 [Compound 127]
2. O=C(COc1ccc(Cl)c(F)c1)NC12CCC(NC(=O)C3Cc4ccccc4O3)(CC1)C(O)C2 (stereo not shown) [Compound 129]
3. O=C(COc1ccc(Cl)c(F)c1)NC12CC(NC(=O)C3CN(C(=O)C4CCOCC4)c4cc(Cl)ccc4O3)(C1)C2 (stereo not shown) [Compound 151]
4. O=C(COc1ccc(Cl)c(F)c1)NC12CCC(NC(=O)[C@H]3CCc4cc(F)ccc4O3)(CC1)C[C@@H]2O [Compound 106]

## Output
["7.30 to 8.00", "6.30 to 6.60", "5.70 to 6.30", "> 8.00"]

For each of the compounds below, state pEC50.
1. CC(C)(C)OC(=O)CN1CC(C(=O)NC23CCC(NC(=O)COc4ccc(Cl)c(F)c4)(CC2)[C@@H](O)C3)Oc2ccc(Cl)cc21 (stereo partly shown) [Compound 185]
2. O=C(COc1ccc(Cl)c(F)c1)NC12CC(NC(=O)C3CC(=O)c4cc(Cl)ccc4O3)(C1)C2 (stereo not shown) [Compound 186]
3. O=C(COc1ccc(Cl)c(F)c1)NC12CC(NC(=O)C3CN(C(=O)C4CCOC4)c4cc(Cl)ccc4O3)(C1)C2 (stereo not shown) [Compound 152]
4. O=C(COc1ccc(Cl)c(F)c1)NC12CC(NC(=O)C3CN(S(=O)(=O)CC(F)(F)F)c4cc(Cl)ccc4O3)(C1)C2 (stereo not shown) [Compound 183]
5. O=C(COc1ccc(Cl)c(F)c1)NC12CCC(NC(=O)C3COc4ccccc4O3)(CC1)[C@H](O)C2 (stereo partly shown) [Compound 123]
6. O=C(COc1ccc(Cl)c(F)c1)NC12CC(NC(=O)C3CN(C(=O)[C@H]4C[C@@H]4F)c4cc(Cl)ccc4O3)(C1)C2 (stereo partly shown) [Compound 138]
7. O=C(CN1CCc2cc(Cl)ccc21)NC12CCC(NC(=O)COc3ccc(Cl)c(F)c3)(CC1)[C@@H](O)C2 [Compound 101]

## Output
1. 6.60 to 7.30
2. > 8.00
3. 6.30 to 6.60
4. 7.30 to 8.00
5. 6.30 to 6.60
6. 6.30 to 6.60
7. 5.70 to 6.30

###

Record form. Attribute: EC50. Fill in for each entry.
- System: HEK293T cells carrying the ATF4 luciferase reporter
- experiment_summary: ATF4-Luc assay (in vitro model of vanishing white matter disease)
- Assay type: cell-based
- applied_conditions: Homo sapiens, HEK-293T; HEK293T cells with ATF4 luciferase reporter, 1 μg/mL tunicamycin, 7 hours, One Glo luminescence

compound	EC50
O=C(COc1ccc(Cl)c(F)c1)NC12CC(NC(=O)C3CN(C(=O)CCC(F)(F)F)c4cc(Cl)ccc4O3)(C1)C2 (stereo not drawn) [Compound 148]	50 to 250 nM

For each of the compounds below, state EC50.
1. O=C(COc1ccc(Cl)c(F)c1)NC12CC(NC(=O)[C@H]3CN(C(=O)[C@H]4C[C@H]4F)c4cc(Cl)ccc4O3)(C1)C2 (single isomer, unassigned) [Compound 142]
2. O=C(COc1ccc(Cl)c(F)c1)NC12CC(NC(=O)C3CN(C(=O)CCCC(F)(F)F)c4cc(Cl)ccc4O3)(C1)C2 (stereo not drawn) [Compound 167]
3. C[C@]1(C(=O)NC23CC(NC(=O)COc4ccc(Cl)c(F)c4)(C2)C3)COc2cc3c(cc21)OC(F)(F)O3 [Compound 131]
4. O=C(COc1ccc(Cl)c(F)c1)NC12CC(NC(=O)C3CN(C(=O)C4(C(F)(F)F)CC4)c4cc(Cl)ccc4O3)(C1)C2 (stereo not drawn) [Compound 177]

## Output
50 to 250 nM
250 to 500 nM
500 to 2000 nM
< 10 nM

For each of the compounds below, state EC50.
1. O=C(COc1ccc(Cl)c(F)c1)NC12CC(NC(=O)[C@@H]3C[C@H](O)c4cc(Cl)ccc4O3)(C1)C2 (single isomer, unassigned) [Compound 195]
2. O=C(COc1ccc(Cl)c(F)c1)NC12CC(NC(=O)[C@H]3COc4ccccc4O3)(C1)C2 [Compound 124]
3. O=C(O)CCN1CC(C(=O)NC23CC(NC(=O)COc4ccc(Cl)c(F)c4)(C2)C3)Oc2ccc(Cl)cc21 (stereo not drawn) [Compound 170]
4. O=C(COc1ccc(Cl)c(F)c1)NC12CC(NC(=O)C3COc4cc(F)c(F)cc4O3)(C1)C2 (stereo not drawn) [Compound 118]
5. O=C(COc1ccc(Cl)c(F)c1)NC12CC(NC(=O)C3CN(C(=O)c4ccno4)c4cc(Cl)ccc4O3)(C1)C2 (stereo not drawn) [Compound 154]
6. O=C(COc1ccc(Cl)c(F)c1)NC12CC(NC(=O)C3Oc4ccccc4NC3=O)(C1)C2 (stereo not drawn) [Compound 109]

## Output
1. < 10 nM
2. 10 to 50 nM
3. 250 to 500 nM
4. < 10 nM
5. < 10 nM
6. 500 to 2000 nM

###

Record form. Attribute: EC50. Fill in for each entry.
- Tested on: HEK293T cells carrying the ATF4 luciferase reporter
- experiment_summary: ATF4-Luc assay (in vitro model of vanishing white matter disease)
- Assay type: cell-based
- applied_conditions: Homo sapiens, HEK-293T; HEK293T cells with ATF4 luciferase reporter, 1 μg/mL tunicamycin, 7 hours, One Glo luminescence

Below: 5 molecules and their reported EC50.
molecule	system_tested	EC50
O=C(COc1ccc(Cl)c(F)c1)NC12CC(NC(=O)[C@H]3COc4cc(Cl)ccc4O3)(C1)C2 [Compound 119]	HEK293T cells carrying the ATF4 luciferase reporter	< 10 nM
CS(=O)(=O)N1CC(C(=O)NC23CC(NC(=O)COc4ccc(Cl)c(F)c4)(C2)C3)Oc2ccc(Cl)cc21 (centres unmarked) [Compound 168]	HEK293T cells carrying the ATF4 luciferase reporter	50 to 250 nM
O=C(COc1ccc(Cl)c(F)c1)NC12CC(NC(=O)C3CN(C(=O)C(F)(F)C(F)(F)F)c4cc(Cl)ccc4O3)(C1)C2 (centres unmarked) [Compound 178]	HEK293T cells carrying the ATF4 luciferase reporter	< 10 nM
Cn1cnc(S(=O)(=O)N2CC(C(=O)NC34CC(NC(=O)COc5ccc(Cl)c(F)c5)(C3)C4)Oc3ccc(Cl)cc32)c1 (centres unmarked) [Compound 165]	HEK293T cells carrying the ATF4 luciferase reporter	10 to 50 nM
O=C(COc1ccc(Cl)c(F)c1)NC12CC(NC(=O)C3CCc4cc(Cl)ccc4O3)(C1)C2 (centres unmarked) [Compound 204]	HEK293T cells carrying the ATF4 luciferase reporter	< 10 nM

For each of the molecules below, state EC50.
1. CS(=O)(=O)CCN1CC(C(=O)NC23CC(NC(=O)COc4ccc(Cl)c(F)c4)(C2)C3)Oc2ccc(Cl)cc21 (centres unmarked) [Compound 180]
2. O=C(COc1ccc(Cl)c(F)c1)NC12CC(NC(=O)C3CN(C(=O)C(F)(F)C(F)F)c4cc(Cl)ccc4O3)(C1)C2 (centres unmarked) [Compound 161]

## Output
1: 10 to 50 nM; 2: < 10 nM
